# measured on: cathepsin G (Cath G) (Homo sapiens, UniProt P08311)
# Construct: purchased Athens Research and Technology, Athens, Ga
# Sequence (P08311 21-244 limits assumed): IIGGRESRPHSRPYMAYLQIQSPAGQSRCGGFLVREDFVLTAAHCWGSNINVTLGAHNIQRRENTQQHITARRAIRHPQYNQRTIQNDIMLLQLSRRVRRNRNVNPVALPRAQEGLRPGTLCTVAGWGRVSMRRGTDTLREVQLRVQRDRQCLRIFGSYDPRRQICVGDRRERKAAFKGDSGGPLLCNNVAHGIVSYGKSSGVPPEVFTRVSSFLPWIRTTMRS
# assay comment: Inactivation of human leukocyte cathepsin G (kobs/[I])
# Type: biochemical
# experimental context: pH 7.5; Table 5
measured parameter: kinact/KI (M⁻¹ s⁻¹)

Check out these entries, answers already filled in.
{"molecule": "O=C1C(Cc2ccccc2)CS(=O)(=O)N1CF (stereo not shown)", "quantitative result": 2700}
{"molecule": "O=C1C(Cc2ccccc2)CS(=O)(=O)N1CCl (stereo not shown)", "quantitative result": 2040}

I: CS(=O)(=O)CN1C(=O)C(Cc2ccccc2)CS1(=O)=O (stereo not shown) [Compound 15D]
II: O=C1C(Cc2ccccc2)CS(=O)(=O)N1C[S+]([O-])c1ccccc1 (stereo not shown) [Compound 13D]
Hi there, can you help? I need to know whether I or II has lower measured kinact/KI. Write down the label of the entry you select.
II
(II: 590 M⁻¹ s⁻¹, I: 2080 M⁻¹ s⁻¹)

====

# measured on: cathepsin G (Cath G) (Homo sapiens)
# Construct: purchased Athens Research and Technology, Athens, Ga
# assay comment: Inactivation of human leukocyte cathepsin G (kobs/[I])
# Assay type: biochemical
# experimental context: pH 7.5; Table 3
measured parameter: kinact/KI (M⁻¹ s⁻¹)

Below are worked cases with known answers.
{"compound": "CC(C)(C)OC(=O)N[C@H](Cc1ccccc1)C(=O)OCN1C(=O)C(Cc2ccccc2)CS1(=O)=O (some centres unmarked) [Compound 4B]", "measured on": "cathepsin G (Cath G) (Homo sapiens)", "units": "M⁻¹ s⁻¹", "kinact/KI": 260}
{"compound": "O=C(CNC(=O)OCc1ccccc1)OCN1C(=O)C(Cc2ccccc2)CS1(=O)=O (centres unmarked) [Compound 11B]", "measured on": "cathepsin G (Cath G) (Homo sapiens)", "units": "M⁻¹ s⁻¹", "kinact/KI": 2680}
{"compound": "C[C@@H](NC(=O)OCc1ccccc1)C(=O)OCN1C(=O)C(Cc2ccccc2)CS1(=O)=O (some centres unmarked) [Compound 9B]", "measured on": "cathepsin G (Cath G) (Homo sapiens)", "units": "M⁻¹ s⁻¹", "kinact/KI": 1820}
{"compound": "CC(C)(C)OC(=O)N[C@@H](Cc1ccccc1)C(=O)OCN1C(=O)C(Cc2ccccc2)CS1(=O)=O (some centres unmarked) [Compound 2B]", "measured on": "cathepsin G (Cath G) (Homo sapiens)", "units": "M⁻¹ s⁻¹", "kinact/KI": 10}
{"compound": "CC(C)(C)OC(=O)N1CCC[C@H]1C(=O)OCN1C(=O)C(Cc2ccccc2)CS1(=O)=O (some centres unmarked) [Compound 6B]", "measured on": "cathepsin G (Cath G) (Homo sapiens)", "units": "M⁻¹ s⁻¹", "kinact/KI": 590}

a: C[C@H](NC(=O)OCc1ccccc1)C(=O)OCN1C(=O)C(Cc2ccccc2)CS1(=O)=O (some centres unmarked) [Compound 8B]
b: O=C(N[C@@H](Cc1ccccc1)C(=O)OCN1C(=O)C(Cc2ccccc2)CS1(=O)=O)OCc1ccccc1 (some centres unmarked) [Compound 1B]
When the recorded kinact/KI values are compared, which is smaller: that of a or that of b ? Kindly give the label for the entry you pick.
b
(b: 20 M⁻¹ s⁻¹, a: 2770 M⁻¹ s⁻¹)

1: O=C(OCN1C(=O)C(Cc2ccccc2)CS1(=O)=O)[C@H]1CCCN1C(=O)OCc1ccccc1 (some centres unmarked) [Compound 7B]
2: O=C(OCN1C(=O)C(Cc2ccccc2)CS1(=O)=O)[C@@H]1CCCN1C(=O)OCc1ccccc1 (some centres unmarked) [Compound 5B]
Please state the entry with greater kinact/KI among 1 and 2 . Your answer should be the label of the entry you select.
2
(2: 7700 M⁻¹ s⁻¹, 1: 360 M⁻¹ s⁻¹)

A: O=C(N[C@H](Cc1ccccc1)C(=O)OCN1C(=O)C(Cc2ccccc2)CS1(=O)=O)OCc1ccccc1 (some centres unmarked) [Compound 3B]
B: C[C@@H](NC(=O)OC(C)(C)C)C(=O)OCN1C(=O)C(Cc2ccccc2)CS1(=O)=O (some centres unmarked) [Compound 10B]
Which has the smaller recorded kinact/KI, A or B ? Lab note: record the label of whichever item you select.
A

====

# measured on: cathepsin G (Cath G) (Homo sapiens)
# Construct: purchased Athens Research and Technology, Athens, Ga
# assay comment: Inactivation of human leukocyte cathepsin G (kobs/[I])
# Assay type: biochemical
# experimental context: pH 7.5; Table 6
measured parameter: kinact/KI (M⁻¹ s⁻¹)

{"molecule": "CC(C)C[C@H]1C(=O)N(CS(=O)(=O)c2ccccc2)S(=O)(=O)N1Cc1ccccc1 [Compound 17E]", "units": "M⁻¹ s⁻¹", "quantitative result": 440}

I: CCCCN1[C@@H](Cc2ccccc2)C(=O)N(CS(=O)(=O)c2ccccc2)S1(=O)=O [Compound 12E]
II: O=C1[C@H](Cc2ccccc2)N(C/C=C/c2ccccc2)S(=O)(=O)N1CS(=O)(=O)c1ccccc1 [Compound 15E]
III: O=C1[C@H](Cc2ccccc2)NS(=O)(=O)N1CS(=O)(=O)c1ccccc1 [Compound 10E]
Reorder the items by kinact/KI, least to greatest. Returns: the labels arranged in the requested order.
III, I, II
(III: 30 M⁻¹ s⁻¹, I: 320 M⁻¹ s⁻¹, II: 760 M⁻¹ s⁻¹)

====

# measured on: cathepsin G (Cath G) (Homo sapiens)
# Construct: purchased Athens Research and Technology, Athens, Ga
# assay comment: Inactivation of human leukocyte cathepsin G (kobs/[I])
# Type: biochemical
# experimental context: pH 7.5; Table 1A
measured parameter: kinact/KI (M⁻¹ s⁻¹)

Examples from the recorded data:
{"molecule": "CC(C(=O)OCN1C(=O)C(Cc2ccccc2)CS1(=O)=O)c1cccc(C(=O)c2ccccc2)c1 (centres unmarked) [Compound 3]", "measured on": "cathepsin G (Cath G) (Homo sapiens)", "kinact/KI [M⁻¹ s⁻¹]": 290}
{"molecule": "CC(=O)Oc1ccccc1C(=O)OCN1C(=O)C(Cc2ccccc2)CS1(=O)=O (centres unmarked) [Compound 4]", "measured on": "cathepsin G (Cath G) (Homo sapiens)", "kinact/KI [M⁻¹ s⁻¹]": 3000}

P: Nc1ccc(O)c(C(=O)OCN2C(=O)C(Cc3ccccc3)CS2(=O)=O)c1 (centres unmarked) [Compound 5]
Q: O=C(Cc1ccccc1Nc1c(Cl)cccc1Cl)OCN1C(=O)C(Cc2ccccc2)CS1(=O)=O (centres unmarked) [Compound 2]
R: CC(C)Cc1ccc(C(C)C(=O)OCN2C(=O)C(Cc3ccccc3)CS2(=O)=O)cc1 (centres unmarked) [Compound 1]
Arrange these molecules by their kinact/KI, starting with the largest number. Put the labels in the requested order and write them down.
P, R, Q
(P: 3330 M⁻¹ s⁻¹, R: 240 M⁻¹ s⁻¹, Q: 80 M⁻¹ s⁻¹)

====

# measured on: human leukocyte elastase (HLE) (Homo sapiens, UniProt P08246)
# Construct: purchased Elastin Products Co., Owensville, Mo
# Sequence (P08246 30-247 limits assumed): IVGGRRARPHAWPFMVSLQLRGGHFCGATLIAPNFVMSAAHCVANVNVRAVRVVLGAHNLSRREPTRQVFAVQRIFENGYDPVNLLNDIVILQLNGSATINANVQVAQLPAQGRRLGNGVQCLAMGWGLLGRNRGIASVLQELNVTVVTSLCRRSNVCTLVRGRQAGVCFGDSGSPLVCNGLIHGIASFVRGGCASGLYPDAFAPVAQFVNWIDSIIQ
# assay comment: Inactivation of human leukocyte elastase (kobs/[I])
# Assay type: biochemical
# experimental context: Table 4
measured parameter: kinact/KI (M⁻¹ s⁻¹)

Known results for compounds:
{"compound": "O=C(CSc1ccccc1)OCN1C(=O)C(Cc2ccccc2)CS1(=O)=O (centres unmarked) [Compound 3C]", "quantitative result": 1020}
{"compound": "O=C(/C=C\\Sc1ccccc1)OCN1C(=O)C(Cc2ccccc2)CS1(=O)=O (centres unmarked) [Compound 6C]", "quantitative result": 170}
{"compound": "O=C(CCc1ccccc1)OCN1C(=O)C(Cc2ccccc2)CS1(=O)=O (centres unmarked) [Compound 2C]", "quantitative result": 680}
{"compound": "O=C(C[S+]([O-])c1ccccc1)OCN1C(=O)C(Cc2ccccc2)CS1(=O)=O (centres unmarked) [Compound 4C]", "quantitative result": 320}
{"compound": "O=C(/C=C/c1ccccc1)OCN1C(=O)C(Cc2ccccc2)CS1(=O)=O (centres unmarked) [Compound 1C]", "quantitative result": 280}
{"compound": "O=C(CS(=O)(=O)c1ccccc1)OCN1C(=O)C(Cc2ccccc2)CS1(=O)=O (centres unmarked) [Compound 5C]", "quantitative result": 340}

1: O=C(C=CS(=O)(=O)c1ccccc1)OCN1C(=O)C(Cc2ccccc2)CS1(=O)=O (centres unmarked) [Compound 8C]
2: O=C(/C=C/Sc1ccccc1)OCN1C(=O)C(Cc2ccccc2)CS1(=O)=O (centres unmarked) [Compound 7C]
Which has the higher kinact/KI, 1 or 2 ? Respond with the label that goes with your answer.
1

====

# measured on: human leukocyte elastase (HLE) (Homo sapiens)
# Construct: purchased Elastin Products Co., Owensville, Mo
# Sequence (P08246 30-247 limits assumed): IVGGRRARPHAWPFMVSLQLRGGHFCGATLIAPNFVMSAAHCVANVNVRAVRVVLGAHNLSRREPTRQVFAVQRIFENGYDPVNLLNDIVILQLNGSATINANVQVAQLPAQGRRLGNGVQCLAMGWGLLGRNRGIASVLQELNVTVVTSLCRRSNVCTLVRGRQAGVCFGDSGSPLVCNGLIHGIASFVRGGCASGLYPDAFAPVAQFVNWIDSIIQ
# assay comment: Inactivation of human leukocyte elastase (kobs/[I])
# Assay type: biochemical
# experimental context: Table 3
measured parameter: kinact/KI (M⁻¹ s⁻¹)

Would you please look over these solved cases?
{"compound": "CC(C)(C)OC(=O)N[C@@H](Cc1ccccc1)C(=O)OCN1C(=O)C(Cc2ccccc2)CS1(=O)=O (some centres unmarked)", "kinact/KI / M⁻¹ s⁻¹": 680}
{"compound": "C[C@@H](NC(=O)OCc1ccccc1)C(=O)OCN1C(=O)C(Cc2ccccc2)CS1(=O)=O (some centres unmarked)", "kinact/KI / M⁻¹ s⁻¹": 300}
{"compound": "O=C(OCN1C(=O)C(Cc2ccccc2)CS1(=O)=O)[C@H]1CCCN1C(=O)OCc1ccccc1 (some centres unmarked)", "kinact/KI / M⁻¹ s⁻¹": 520}
{"compound": "CC(C)(C)OC(=O)N[C@H](Cc1ccccc1)C(=O)OCN1C(=O)C(Cc2ccccc2)CS1(=O)=O (some centres unmarked)", "kinact/KI / M⁻¹ s⁻¹": 1140}

a: C[C@H](NC(=O)OCc1ccccc1)C(=O)OCN1C(=O)C(Cc2ccccc2)CS1(=O)=O (some centres unmarked)
b: O=C(N[C@H](Cc1ccccc1)C(=O)OCN1C(=O)C(Cc2ccccc2)CS1(=O)=O)OCc1ccccc1 (some centres unmarked)
Recorded kinact/KI values differ for a and b ; which one is higher? Your answer should be the label attached to the chosen record.
b

P: C[C@@H](NC(=O)OC(C)(C)C)C(=O)OCN1C(=O)C(Cc2ccccc2)CS1(=O)=O (some centres unmarked) [Compound 10B]
Q: O=C(N[C@@H](Cc1ccccc1)C(=O)OCN1C(=O)C(Cc2ccccc2)CS1(=O)=O)OCc1ccccc1 (some centres unmarked)
R: CC(C)(C)OC(=O)N1CCC[C@H]1C(=O)OCN1C(=O)C(Cc2ccccc2)CS1(=O)=O (some centres unmarked)
Sort the 3 compounds by kinact/KI; largest first, smallest last. Please list the labels according to the requested order.
P, R, Q
